Items are presented alongside their recorded cAMP released with respect to control, 100 nM peptide, UMR-106 cells.
# MEASUREMENT TARGET: T1, rat PTH-1R (rat PTHR endogenously expressed on UMR-106 rat osteosarcoma cells) (rat, UniProt P25961 27-591)
# T1 sequence (looked up): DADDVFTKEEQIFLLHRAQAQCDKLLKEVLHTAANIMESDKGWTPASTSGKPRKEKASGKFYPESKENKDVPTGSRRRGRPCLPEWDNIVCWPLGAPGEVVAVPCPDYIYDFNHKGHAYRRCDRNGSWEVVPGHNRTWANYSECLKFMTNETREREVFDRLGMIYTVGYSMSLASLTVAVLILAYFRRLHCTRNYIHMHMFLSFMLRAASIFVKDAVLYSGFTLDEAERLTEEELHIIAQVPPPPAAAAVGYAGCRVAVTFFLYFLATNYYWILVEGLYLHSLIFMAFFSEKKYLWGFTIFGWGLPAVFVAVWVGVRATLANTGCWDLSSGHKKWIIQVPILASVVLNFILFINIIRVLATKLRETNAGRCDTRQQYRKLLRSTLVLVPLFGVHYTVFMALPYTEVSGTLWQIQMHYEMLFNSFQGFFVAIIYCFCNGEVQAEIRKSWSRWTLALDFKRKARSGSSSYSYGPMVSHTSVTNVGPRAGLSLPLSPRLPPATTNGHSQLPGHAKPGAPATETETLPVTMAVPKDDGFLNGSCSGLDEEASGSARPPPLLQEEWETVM
# EXPERIMENT SUMMARY: cell-based or functional assay
Where no end group is shown, it is not given here. [ ]: non-standard residue; d: D form. αMePhe(2,6-F2) = C[C@](N)(Cc1c(F)cccc1F)C(=O)O; αMePhe(2-F) = C[C@](N)(Cc1ccccc1F)C(=O)O; hArg = N=C(N)NCCCC[C@H](N)C(=O)O; Cit = NC(=O)NCCC[C@H](N)C(=O)O; Nle = CCCC[C@H](N)C(=O)O; Orn = NCCC[C@H](N)C(=O)O; Ac5c = NC1(C(=O)O)CCCC1; Aib = CC(C)(N)C(=O)O

- BINDER: "[Ac5c]V[Ac5c]EIQ[αMePhe(2,6-F2)][Nle]HQ[hArg][Aib][Aib][αMePhe(2,6-F2)] [Seq. ID. 198]"
  MEAS VALUE: "99 percent of control"

## Input # query: cAMP released with respect to control, 100 nM peptide, UMR-106 cells of entry [Aib]V[Aib]EIQ[αMePhe(2,6-F2)][Nle]HQ[Orn]A[αMePhe(2,6-F2)][αMePhe(2,6-F2)] [Seq. ID. 325]
## Output 116 percent of control

## Input # query: cAMP released with respect to control, 100 nM peptide, UMR-106 cells of entry [Ac5c]V[Aib]EIQ[αMePhe(2-F)][Nle]HQ[Cit][Aib][Aib][αMePhe(2,6-F2)] [Seq. ID. 372]
## Output 99 percent of control
